assayed system: Microtubule-associated protein tau (Homo sapiens) (UniProt P10636)
Sequence (P10636 561-689 P618L limits assumed): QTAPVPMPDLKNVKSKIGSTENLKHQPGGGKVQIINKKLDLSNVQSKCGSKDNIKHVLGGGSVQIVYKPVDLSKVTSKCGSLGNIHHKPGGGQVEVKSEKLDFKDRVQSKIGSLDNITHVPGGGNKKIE
measurement notes: qHTS for Inhibitors of Tau Fibril Formation, Thioflavin T Binding; note: nearly all actives have a fitted effect of over 55% in size; note: potency is the fitted concentration of half-maximal effect
condition: recombinant tau K18 P301L, heparin-induced fibrillization, ThT fluorescence; series mostly up to 57.4 µM
Hit rate of the full screen: of about 270,000 compounds, about 5,800 (2.1%) were called active. Roughly 16% stayed inconclusive and do not appear here. This is one part of a sample in which actives are shown more often than they occur.
measured quantity: Potency

Previously resolved entries follow.
INSERT INTO results (chemical_smiles, measured_quantity, reported_result) VALUES
  ('COc1ccc(Cn2ccn(Cc3cccc(OC)c3)c(=O)c2=O)cc1', 'Potency', 'inactive'),
  ('COc1cc(NS(=O)(=O)c2ccc(N=Cc3c(C)[nH]n(-c4ccccc4)c3=O)cc2)nc(OC)n1', 'Potency', 'inactive'),
  ('COc1cc(SC#N)ccc1N=Cc1c(C)[nH]n(-c2ccc(C)cc2)c1=O', 'Potency', '14.1 µM (active)'),
  ('COc1ccc(/C=C/C(=O)c2cc(Br)ccc(=O)c2O)cc1', 'Potency', '4.47 µM (active)');

With those in mind, consider the next compound.
The reported Microtubule-associated protein tau (Homo sapiens) (UniProt P10636) Potency of CCCNC(=O)c1ccc(Cn2c(SCC(N)=O)nc3ccccc3c2=O)cc1 is inactive

###

assayed system: Microtubule-associated protein tau (Homo sapiens) (UniProt P10636)
measurement notes: qHTS for Inhibitors of Tau Fibril Formation, Thioflavin T Binding; note: nearly all actives have a fitted effect of over 55% in size; note: potency is the fitted concentration of half-maximal effect
condition: recombinant tau K18 P301L, heparin-induced fibrillization, ThT fluorescence; series mostly up to 57.4 µM
Among all 270,000 compounds or so, about 5,800 (2.1%) were called active. Inconclusive results (about 16%) are left out. For the sample, actives were picked, then their nearest neighbours and some compounds at random.
measured quantity: Potency

INSERT INTO assay_data (molecule, assayed_system, reported_result) VALUES
  ('Cc1nc2ccccc2nc1N/N=C/c1ccc(O)cc1O', 'Microtubule-associated protein tau (Homo sapiens) (UniProt P10636)', '14.1 µM (active)'),
  ('O=C(N/N=C/c1ccc([N+](=O)[O-])cc1)c1c[nH]c2ccccc12', 'Microtubule-associated protein tau (Homo sapiens) (UniProt P10636)', '2.82 µM (active)'),
  ('Oc1ccc(/C=N/NC2=NCCCCC2)c(O)c1', 'Microtubule-associated protein tau (Homo sapiens) (UniProt P10636)', 'inactive'),
  ('Fc1ccc(Nc2nnns2)cc1', 'Microtubule-associated protein tau (Homo sapiens) (UniProt P10636)', '28.2 µM (active)'),
  ('CCC(=O)N1c2ccccc2CC1C(=O)N1CCN(c2cccc(OC)c2)CC1 (stereo unspecified)', 'Microtubule-associated protein tau (Homo sapiens) (UniProt P10636)', 'inactive'),
  ('COc1cccc(CNS(=O)(=O)c2cc3c(cc2C)n(C)c(=O)c(=O)n3C)c1', 'Microtubule-associated protein tau (Homo sapiens) (UniProt P10636)', 'inactive'),
  ('Cc1cccc(C(=O)NNC(=O)c2cccc([N+](=O)[O-])c2)c1', 'Microtubule-associated protein tau (Homo sapiens) (UniProt P10636)', 'inactive'),
  ('COc1cc(CC(=O)N/N=C/c2ccccc2)c([N+](=O)[O-])cc1OC', 'Microtubule-associated protein tau (Homo sapiens) (UniProt P10636)', 'inactive');

Field Potency (system: Microtubule-associated protein tau (Homo sapiens) (UniProt P10636)) for entry COC(=O)C1=C(C)N(c2ccc(Br)cc2)C(=O)/C1=C\c1ccco1 = inactive

I looked up CC(C)NC(=O)C(=O)N/N=C/c1ccco1 and its Potency for Microtubule-associated protein tau (Homo sapiens) (UniProt P10636) was inactive

Record Fc1ccc(/C=N/Nc2nc(-c3cccnc3)nc3ccccc23)cc1 has Microtubule-associated protein tau (Homo sapiens) (UniProt P10636) Potency equal to inactive

###

assayed system: Microtubule-associated protein tau (Homo sapiens)
measurement notes: qHTS for Inhibitors of Tau Fibril Formation, Thioflavin T Binding; note: nearly all actives have a fitted effect of over 55% in size
condition: recombinant tau K18 P301L, heparin-induced fibrillization, ThT fluorescence; series mostly up to 57.4 µM
In all, about 270,000 compounds went through this assay and about 5,800 (2.1%) were called active. Inconclusive results (about 16%) are left out. The call rests on the fitted dose curve; in most records, active means well fitted inhibition curve with a large enough effect; inconclusive means small, poorly fitted or top-dose-only effect; inactive means flat fitted curve, though single readings scatter. The sample holds actives, similar compounds and a random draw of the others, so the mix is not that of the screen.
Your response should consist of one outcome taken from 1 (yes) for active, 0 (no) for inactive

These recorded examples may help you get a feel for the data.
INSERT INTO results (molecule, assayed_system, class_label) VALUES
  ('COc1ccc(S(=O)(=O)n2nc(C)c(S(=O)(=O)N3CCCCCC3)c2C)cc1', 'Microtubule-associated protein tau (Homo sapiens)', '0 (no)'),
  ('COc1ccc(N(C(=O)c2cccnc2)S(=O)(=O)c2ccc3c(c2)n(C)c(=O)n3C)cc1', 'Microtubule-associated protein tau (Homo sapiens)', '0 (no)'),
  ('CCOc1ccc2nc(N3CCCC(C(=O)Nc4cc(C)ccc4C)C3)sc2c1 (stereo not given)', 'Microtubule-associated protein tau (Homo sapiens)', '0 (no)'),
  ('Cc1ccc(-c2ccc(/C=C(\C#N)C(N)=S)o2)c([N+](=O)[O-])c1', 'Microtubule-associated protein tau (Homo sapiens)', '1 (yes)');

# next molecule below
Test call for this molecule, please: Cc1cc(-c2ccc(/C=N/n3cnnc3)o2)c([N+](=O)[O-])cc1C 0 (no)

###

assayed system: Microtubule-associated protein tau (Homo sapiens) (UniProt P10636)
measurement notes: qHTS for Inhibitors of Tau Fibril Formation, Thioflavin T Binding; note: nearly all actives have a fitted effect of over 55% in size
condition: recombinant tau K18 P301L, heparin-induced fibrillization, ThT fluorescence; series mostly up to 57.4 µM
Screen size: about 270,000 compounds; about 5,800 (2.1%) were called active. Roughly 16% stayed inconclusive and do not appear here. Calls come from the whole dose curve; as a rule, active = well fitted inhibition curve with a large enough effect; inconclusive = small, poorly fitted or top-dose-only effect; inactive = flat fitted curve, though single readings scatter. The sample as a whole holds a higher share of actives than the screen did.
Answer with one of the outcomes t = active, f = inactive

INSERT INTO measurements (compound, class_label) VALUES
  ('COc1cc(/C=N/NC(=O)CCc2n[nH]c(=O)[nH]c2=O)ccc1O', 'f'),
  ('Cc1cc(/C=N/Nc2ccc([N+](=O)[O-])cn2)c(C)n1-c1cccc(C(=O)O)c1', 't'),
  ('O=C(Nc1ccc2nc(SCCOc3ccccc3Cl)sc2c1)c1ccco1', 'f'),
  ('Cc1ccc2oc3c(c(=O)c2c1)C(c1ccc([N+](=O)[O-])cc1)N(CCCN1CCOCC1)C3=O (stereo unspecified)', 'f'),
  ('COc1ccc(C(=O)CSc2c(C(C)C)cnc3c2c(=O)n(C)c(=O)n3C)cc1', 'f');

Test call, this compound: Oc1c(C(c2ccccc2Cl)N2CCOCC2)sc2nc(-c3ccco3)nn12 (stereo unspecified) f

Could you please tell me the result logged for O=[N+]([O-])c1cc(Br)c(O)c(/C=N/Nc2nc3ccccc3s2)c1 in this assay? t

Any idea what this test logged for COc1cc(/C=N\NC(=O)CNC(=O)c2cccc([N+](=O)[O-])c2)ccc1O ? f

Look up the recorded call for COc1ccc(S(=O)(=O)Nc2ccc(O)c(Sc3nc4ccccc4s3)c2)cc1 in this test. f

Short answer needed: outcome of this test for O=C1C(c2ccccn2)=[N+]([O-])c2ccccc21 ? t

###

assayed system: Microtubule-associated protein tau (Homo sapiens)
measurement notes: qHTS for Inhibitors of Tau Fibril Formation, Thioflavin T Binding; note: nearly all actives have a fitted effect of over 55% in size
condition: recombinant tau K18 P301L (four-repeat tau fragment), heparin-induced fibrillization, ThT fluorescence; series mostly up to 57.4 µM
Out of some 270,000 compounds screened, about 5,800 (2.1%) were called active. About 16% were inconclusive and are not listed. The call rests on the fitted dose curve; in most records, active means well fitted inhibition curve with a large enough effect; inconclusive means small, poorly fitted or top-dose-only effect; inactive means flat fitted curve, though single readings scatter. The sample holds actives, similar compounds and a random draw of the others, so the mix is not that of the screen.
Form entry, call: pick from active, inactive

Reference set, count: 5
INSERT INTO measurements (molecule, class_label) VALUES
  ('COc1ccc(NC(=O)Nc2cccc(-c3noc(C)n3)c2)cc1', 'inactive'),
  ('COc1ccccc1OCC(=O)Nc1nnc2n1CCS2', 'inactive'),
  ('Cc1ccc(CNC(=O)Cn2c(=O)ccc3cc(S(=O)(=O)N4CCCC4)ccc32)cc1', 'inactive'),
  ('COC(=O)CC1=NN(c2ccccc2)C(=O)C1', 'inactive'),
  ('CCC(=O)Nc1ccc(C(=O)Nc2cccc(OC)c2)cc1', 'inactive');

Given Cc1ccc(C(=O)NCCNC(=O)c2ccccc2)cc1 , state the outcome it received in this test. inactive

Give the logged outcome of this assay for the following molecule: CNc1ccc(-c2nc(-c3ccccc3C)no2)cc1[N+](=O)[O-] inactive

I would be grateful if you could indicate the recorded call for COc1cccc(C(=O)Nc2ccc(-c3cc(C(F)(F)F)nn3-c3ccccc3)cc2)c1 . inactive

Per the records of this test, what outcome belongs to Cn1c(=O)n(Cc2c(F)cccc2Cl)c(=O)c2c1nc1n2CCN1c1ccc(F)cc1 ? inactive

Which outcome did this test record for the molecule CC(C)C(=O)Nc1nc2c(s1)CC(C(C)(C)C)CC2 (stereo not drawn) ? inactive

Hello, I am checking results. What call was entered for O=[N+]([O-])c1ccccc1Nc1ccc(O)cc1 ? active

Per the assay record, what outcome was assigned to COc1ccc(C(=O)Nc2nc(-c3ccc(S(=O)(=O)N4CCOCC4)cc3)cs2)cc1 ? inactive

Test call for this molecule, please: COc1ccc(CCNC(=O)c2nn(C)c3c2CSc2ccccc2-3)cc1OC inactive

Field: outcome | Entry: CCCCc1nnc(NC(=O)CSc2nc(C)cc(=O)[nH]2)s1 inactive

Record lookup: outcome of this test for COc1ccc(-c2nc(Cn3c(=O)cc(C)c4c(C)nn(-c5ccccc5)c43)c(C)o2)c(OC)c1 ? inactive

Give the logged outcome of this assay for the following molecule: Cc1ccc(N(C)C(=O)C2CCN(S(=O)(=O)c3ccc4c(c3)CCCN4C(=O)C3CCC3)CC2)cc1 inactive

Would you mind telling me which call this test gave CCOC(=O)c1cnc2c(C)cc(C)cc2c1Nc1ccc(N2CCOCC2)cc1 ? active

Give the logged outcome of this assay for the following molecule: CC(C)(C)c1ccc(NC(=O)NCc2ccco2)cc1 inactive
